Exercise: state measured remaining activity at 1000 µM for each of the compounds provided.
system.name: PBP3 (PaPBP3) (Pseudomonas aeruginosa, UniProt G3XD46)
Construct: gene ftsI; residues 50–579
Sequence (G3XD46 50-579): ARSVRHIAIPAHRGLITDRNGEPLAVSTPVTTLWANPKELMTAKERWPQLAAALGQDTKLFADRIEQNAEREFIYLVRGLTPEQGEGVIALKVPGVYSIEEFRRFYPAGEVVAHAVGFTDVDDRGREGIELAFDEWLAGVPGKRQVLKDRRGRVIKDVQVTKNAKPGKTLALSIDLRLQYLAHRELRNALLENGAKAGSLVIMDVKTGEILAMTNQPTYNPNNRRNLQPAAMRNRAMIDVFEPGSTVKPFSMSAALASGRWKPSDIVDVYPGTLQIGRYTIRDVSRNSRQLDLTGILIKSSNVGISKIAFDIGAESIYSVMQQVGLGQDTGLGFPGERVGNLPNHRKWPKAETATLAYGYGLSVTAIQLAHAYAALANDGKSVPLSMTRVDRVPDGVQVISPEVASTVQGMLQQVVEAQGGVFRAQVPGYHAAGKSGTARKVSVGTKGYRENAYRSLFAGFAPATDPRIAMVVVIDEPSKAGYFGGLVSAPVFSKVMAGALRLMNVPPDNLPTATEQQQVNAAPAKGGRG
method.description: biochemical
Parameters: BOCILLIN FL fluorescence anisotropy, residual PBP3 binding after 1 h pre-incubation with compound
condition.notes: read-out: Residual Activity by BOCILLIN FL FA (%)

A selection of reference data follows.
compound | remaining activity at 1000 µM
CNC(=O)CNC(=O)c1ccc2c(c1)B(O)OC2 [compound 5] | > 90%
NC(=O)[C@H](NC(=O)c1ccc2c(c1)B(O)OC2CC(=O)O)c1ccccc1 (some centres unmarked) [compound 12, 12] | 16%
O=C(O)c1ccc2c(c1)B(O)OC2 [compound 3] | 75%

Please state, for each entry, its recorded remaining activity at 1000 µM.
1. COC(=O)[C@H](NC(=O)c1ccc2c(c1)B(O)OC2)c1ccccc1 [compound 7]
2. O=C1CN(C(=O)[C@@H](Cc2ccccc2)NC(=O)c2ccc3c(c2)B(O)OC3)CCN1 [compound 11]
3. O=C(O)C[C@@H]1CC[C@H](NC(=O)Cc2cccs2)B(O)O1 [vaborbactam]
4. CN1CCN(C(=O)CNC(=O)c2ccc3c(c2)B(O)OC3CC(=O)O)CC1=O (centres unmarked) [compound 13, 13]
5. NC(=O)[C@@H](Cc1ccccc1)NC(=O)c1ccc2c(c1)B(O)OC2 [compound 6]

["> 90%", "84%", "54%", "42%", "> 90%"]
